# target or test system: HIV-1 RT reference (HIV-1 subtype B (clone BH10), UniProt P03366;P03366 P03366:600-1159,P03366:600-1039)
# measurement protocol: competition; BIC50, RT binding to template/primer; 33 C
# run conditions: two stem-loops (D and anticodon)
pIC50: −log10 of the molar value.
measured property: pIC50

GCUCAGUCGGUAGAGCAUCAGACUUUUAAUCUGAG (ssRNA) [compound 199]; 8.15
